- TESTED_ON: HGFR (Homo sapiens, UniProt P08581)
- Construct: purchased Upstate 14-526
- Sequence (P08581 974-1390 limits assumed): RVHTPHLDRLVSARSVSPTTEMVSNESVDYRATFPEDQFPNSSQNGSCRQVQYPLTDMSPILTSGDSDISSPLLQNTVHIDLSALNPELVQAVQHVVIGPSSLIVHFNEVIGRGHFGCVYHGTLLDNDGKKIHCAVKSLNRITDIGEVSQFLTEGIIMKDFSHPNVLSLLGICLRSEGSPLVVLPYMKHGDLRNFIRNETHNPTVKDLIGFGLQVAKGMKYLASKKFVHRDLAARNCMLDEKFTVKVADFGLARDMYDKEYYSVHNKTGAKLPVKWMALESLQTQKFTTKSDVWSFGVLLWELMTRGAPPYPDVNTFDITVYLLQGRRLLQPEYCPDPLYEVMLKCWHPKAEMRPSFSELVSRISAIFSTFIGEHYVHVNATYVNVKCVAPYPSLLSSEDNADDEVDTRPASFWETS
- ASSAY_SUMMARY: HGFR continuous-coupled spectrophotometric assay (tyrosine kinase activity on Met-2 substrate peptide)
- Assay type: biochemical
- TEST_PARAMETERS: HGFR 50 nM, Met-2 peptide 0.5 mM, ATP 300 μM, 37° C., absorbance 340 nm; read-out: Ki
pKi: −log10 of the molar value.
OUTCOME_MEASURE: pKi

Reference set (6 entries):
[[record]]
compound = "CC1C(=O)N(C)CCN1c1cnc2nnn(Cc3ccc4ncccc4c3)c2n1 (stereo not shown) [Example 88]"
outcome_measure = "pKi"
measured = 7.30

[[record]]
compound = "CNC(=O)c1cccc(-c2cnc3nnn(Cc4ccc5ncccc5c4)c3n2)c1 [Example 18]"
outcome_measure = "pKi"
measured = 8.30

[[record]]
compound = "FC(F)CNc1cnc2nnn(Cc3ccc4ncccc4c3)c2n1 [Example 144]"
outcome_measure = "pKi"
measured = 8.52

[[record]]
compound = "CN(C)c1cnc2nnn(Cc3ccc4ncccc4c3)c2n1 [Example 159]"
outcome_measure = "pKi"
measured = 7.89

[[record]]
compound = "CN[C@@H]1CCN(c2cnc3nnn(Cc4ccc5ncccc5c4)c3n2)C1 [Example 134]"
outcome_measure = "pKi"
measured = 8.15

[[record]]
compound = "CCCN(CCO)c1cnc2nnn(Cc3ccc4ncccc4c3)c2n1 [Example 84]"
outcome_measure = "pKi"
measured = 7.59


(1) OCC[C@H]1CN(c2cnc3nnn(Cc4ccc5ncccc5c4)c3n2)C[C@H]1CO [Example 110]
(2) NCc1ccc(-c2cnc3nnn(Cc4ccc5ncccc5c4)c3n2)cc1 [Example 38]
*Q* Given 1 and 2 , report the one with the higher recorded pKi. Output the label that corresponds to your choice.
*A* 2

(A) N#Cc1cnc2nnn(Cc3ccc4ncccc4c3)c2n1 [Example 163]
(B) CN(C)[C@@H]1CCN(c2cnc3nnn(Cc4ccc5ncccc5c4)c3n2)C1 [Example 30]
(C) CCc1nc(CN(C)c2cnc3nnn(Cc4ccc5ncccc5c4)c3n2)no1 [Example 87]
*Q* Order the records so the highest pKi appears first and the lowest last. Would you mind listing the labels in the order asked for?
*A* B, A, C

(I) OC[C@@H]1C[C@H](F)CN1c1cnc2nnn(Cc3ccc4ncccc4c3)c2n1 [Example 96]
(II) CN(Cc1cc(-c2ccccn2)no1)c1cnc2nnn(Cc3ccc4ncccc4c3)c2n1 [Example 93]
*Q* // max by pKi over [ I , II ] When you have decided, please share the label of that item.
*A* I

(A) NCCn1cc(-c2cnc3nnn(Cc4ccc5ncccc5c4)c3n2)cn1 [Example 2]
(B) CCN(CCO)c1cnc2nnn(Cc3ccc4ncccc4c3)c2n1 [Example 74]
*Q* When the recorded pKi values are compared, which is smaller: that of A or that of B ? Field: selected label. Fill in the label of the entry you choose.
*A* B
(B: 7.48, A: 7.96)

(A) NC(=O)C1CCN(c2cnc3nnn(Cc4ccc5ncccc5c4)c3n2)C1 (stereo not shown) [Example 177]
(B) CC(O)CNc1cnc2nnn(Cc3ccc4ncccc4c3)c2n1 (stereo not shown) [Example 175]
*Q* Task for the reader: decide whether A or B has the larger pKi. Which one? Tell me its label.
*A* B
(B: 8.10, A: 7.54)

(1) CN(CCS(C)(=O)=O)c1cnc2nnn(Cc3ccc4ncccc4c3)c2n1 [Example 85]
(2) CC(C)(N)CNc1cnc2nnn(Cc3ccc4ncccc4c3)c2n1 [Example 141]
*Q* I would appreciate it if you could say which entry, 1 or 2 , has the lower pKi value. # respond with the chosen item's label
*A* 1
(1: 7.92, 2: 8.22)

These measurements were taken from patent US7732604B2.
